Target: T1, talin-1 R7–R8 fragment, wildtype (residues 1355–1652) (mouse, UniProt P26039 1355-1652)
T1 chain: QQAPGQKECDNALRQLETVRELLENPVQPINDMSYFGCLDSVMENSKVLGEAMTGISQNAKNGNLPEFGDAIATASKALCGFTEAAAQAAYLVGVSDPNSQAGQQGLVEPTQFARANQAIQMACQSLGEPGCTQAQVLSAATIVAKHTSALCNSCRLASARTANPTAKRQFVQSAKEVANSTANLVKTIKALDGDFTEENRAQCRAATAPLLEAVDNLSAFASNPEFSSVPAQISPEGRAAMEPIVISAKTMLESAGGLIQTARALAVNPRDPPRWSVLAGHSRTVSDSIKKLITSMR
Assay: FP
No end group written: not given here.
Measurement label: Kd (µM)
Field format: number, assumed µM, no unit text.

[[record]]
binder = "SEDIDQMFSTLLGEMDLLTQSLGVDTC (also: BODIPY or Fluorescein dye coupled via C-terminal Cys) [RIAM (4–30) peptide]"
readout_unit = "µM"
reading = 3.6


Kd reading for PYFVETPYGFQLDLDFVKYVDDIQKGNTIKKLNIQKRRKC (BODIPY or Fluorescein dye coupled via the C-terminal cysteine residue) [KANK1 (30–68) peptide] : 0.35
